tested on: Thrombocyte; experiment: Thrombocyte shape change; format: cell-based
pIC50: −log10 of the molar value.
observedProperty: pIC50

A. CC#CCC(C)[C@H](O)/C=C/[C@H]1[C@H](O)CC(=O)[C@@H]1CC(=O)CCCCC(=O)O (mixture of isomers) [Example 1]
B. CCC#CC[C@H](C)[C@H](O)C#C[C@H]1[C@H](O)CC(=O)[C@@H]1CC(=O)CCCCC(=O)O [Example 4]
// which entry reports the smaller pIC50, A or B ? Could you answer with the label of the item you picked? A
